meta.source: patent US20100081612A1

SYSTEM_UNDER_TEST: T1, wild-type human PTHR (human, UniProt Q03431 27-593)
T1 construct: whole, on cells; also called PTHR-WT; intact PTHR
T1 sequence (looked up): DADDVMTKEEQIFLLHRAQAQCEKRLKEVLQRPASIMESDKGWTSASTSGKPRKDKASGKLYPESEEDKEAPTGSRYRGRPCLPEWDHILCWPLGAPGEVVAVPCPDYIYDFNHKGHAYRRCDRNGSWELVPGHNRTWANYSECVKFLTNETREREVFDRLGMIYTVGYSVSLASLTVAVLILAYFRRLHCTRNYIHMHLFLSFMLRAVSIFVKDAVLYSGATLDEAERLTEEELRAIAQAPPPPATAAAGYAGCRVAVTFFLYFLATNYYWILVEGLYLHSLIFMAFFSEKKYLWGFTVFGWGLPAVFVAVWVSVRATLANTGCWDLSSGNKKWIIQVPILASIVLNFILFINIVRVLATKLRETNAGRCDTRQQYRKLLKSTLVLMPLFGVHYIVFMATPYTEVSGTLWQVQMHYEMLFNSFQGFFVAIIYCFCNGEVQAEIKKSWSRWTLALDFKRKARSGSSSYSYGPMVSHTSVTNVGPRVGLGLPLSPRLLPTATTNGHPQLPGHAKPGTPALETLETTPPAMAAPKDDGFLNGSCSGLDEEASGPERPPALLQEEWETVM
TEST_METHOD_NOTES: competition binding, HKRK-B7 cells, 125I-PTH(1-34) tracer
Where no end group is shown, it is not given here.
PROPERTY_MEASURED: fold enhancement in binding affinity vs PTH(1-31)NH2

INSERT INTO assay_data (binder, result) VALUES
  ('SVSEIQLMHNLGKHLNSMRRVEWLRKKLQDV-NH2 [PTH(1-31)NH2 Glu^19→Arg]', '≤ 2 fold'),
  ('SVSEIQLMHNLGKHLNSMERVEWLRKKLADV-NH2 [PTH(1-31)NH2 Gln^29→Ala]', '≤ 2 fold'),
  ('SVSEIQLMHNLGKHLNSMARVEWLRKKLQDV-NH2 [PTH(1-31)NH2 Glu^19→Ala]', '≤ 2 fold'),
  ('SVSEIQLMHNLGKHLNSMERVAWLRKKLQDV-NH2 [PTH(1-31)NH2 Glu^22→Ala]', '≤ 2 fold');
